target: Aryl hydrocarbon receptor (Homo sapiens) (UniProt P35869); assay: ATG_Ahr_CIS: Attagene CIS-FACTORIAL HepG2 Assay for human Aryl Hydrocarbon Receptor (Ahr) (AID 2282930); conditions: HepG2 AhR cis-factorial reporter transcription; actives raise or lower the signal
Sequence (P35869 whole entry, looked up): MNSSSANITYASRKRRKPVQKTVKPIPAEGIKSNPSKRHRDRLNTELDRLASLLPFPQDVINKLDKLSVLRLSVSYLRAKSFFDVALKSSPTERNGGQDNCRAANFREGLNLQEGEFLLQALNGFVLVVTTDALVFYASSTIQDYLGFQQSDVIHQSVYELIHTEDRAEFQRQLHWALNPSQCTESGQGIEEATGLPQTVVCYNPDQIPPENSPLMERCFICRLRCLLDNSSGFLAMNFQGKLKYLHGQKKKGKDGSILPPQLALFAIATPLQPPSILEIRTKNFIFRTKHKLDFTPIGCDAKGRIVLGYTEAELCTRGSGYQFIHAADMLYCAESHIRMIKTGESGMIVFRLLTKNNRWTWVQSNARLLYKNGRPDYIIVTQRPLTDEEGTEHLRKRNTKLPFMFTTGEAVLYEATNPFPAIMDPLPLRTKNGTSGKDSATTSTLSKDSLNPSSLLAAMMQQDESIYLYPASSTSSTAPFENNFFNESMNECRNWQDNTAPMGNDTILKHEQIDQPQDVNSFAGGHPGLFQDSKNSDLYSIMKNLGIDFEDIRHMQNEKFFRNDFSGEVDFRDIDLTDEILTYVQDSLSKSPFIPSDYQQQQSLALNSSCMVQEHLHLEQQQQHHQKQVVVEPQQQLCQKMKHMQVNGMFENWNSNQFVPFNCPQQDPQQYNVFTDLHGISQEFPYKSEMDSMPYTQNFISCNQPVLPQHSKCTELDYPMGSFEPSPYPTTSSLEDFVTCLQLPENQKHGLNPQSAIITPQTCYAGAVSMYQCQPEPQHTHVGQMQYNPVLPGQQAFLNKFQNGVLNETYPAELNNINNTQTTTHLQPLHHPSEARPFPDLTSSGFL
Active and inactive are the calls of the source. Rule for the calls: active = hit-call score of the fitted dose curve at least 0.9, where 1 is the maximum; inactive = score below 0.9.
Choose the fitting class; nothing outside active, inactive is accepted.

# Compound, Group
records = [
    ("[Cl][Bi]([Cl])([c]1ccccc1)([c]1ccccc1)[c]1ccccc1", "inactive"),
    ("C=CC(=O)OCCOC1C2CCC1C1CC=CC12 (stereo not given)", "inactive"),
    ("O=CC1CC1", "active"),
    ("C=CC(C)(CCC=C(C)C)OC(=O)C(C)C (stereo not given)", "inactive"),
    ("CCCCCC(C)O (stereo not given)", "inactive"),
]

Hi, do you know how CC(=O)Oc1ccc(C(C)=O)cc1 came out in this test?
inactive

What about this compound? CCOC(=O)[C@H](C)O
inactive

Would you kindly repeat that for C=C(C)C(=O)OCCO ?
inactive

Now the same for COC(=O)c1sccc1S(N)(=O)=O
inactive

Follow-up item: Cc1ccc2c(c1)C(=O)c1ccccc1C2=O
active

====

experiment: ATG_NF_kB_CIS: Attagene CIS-FACTORIAL HepG2 Assay for human Nuclear Factor Kappa B (NF-kB) (AID 2282991); conditions: HepG2 Attagene cis-factorial NF-kB reporter mRNA; actives raise or lower the signal
Activity calls are given as the source filed them. How the source made its calls: active means hit-call score of the fitted dose curve at least 0.9, where 1 is the maximum; inactive means score below 0.9.
Permitted responses: active, inactive

# Molecule, Group
measured = [
    ("CC1(C)[C@H]2CC[C@]1(C)C(=O)C2", "inactive"),
    ("CCCNC(=O)NS(=O)(=O)c1ccc(Cl)cc1", "inactive"),
    ("[Cl][Bi]([Cl])([c]1ccccc1)([c]1ccccc1)[c]1ccccc1", "active"),
    ("CCCC(=O)OCc1ccccc1", "inactive"),
]

Dear colleague, could you share the recorded outcome for O=S(=O)(O)c1ccccc1C=Cc1ccc(-c2ccc(C=Cc3ccccc3S(=O)(=O)O)cc2)cc1 when you have a moment?
inactive

Next: COC(=O)C1=C(C)NC(C)=C(C(=O)OCC(C)C)C1c1ccccc1[N+](=O)[O-] (centres undefined)
inactive

Next entry: CC(=O)OCC(=O)[C@@]12N=C(C)O[C@@H]1C[C@H]1[C@@H]3CCC4=CC(=O)C=C[C@]4(C)[C@H]3[C@@H](O)C[C@@]12C
inactive

Try the molecule O=c1c2ccccc2oc2ccccc12
inactive

Same again, this time with C[C@]12CCC(=O)C=C1CC[C@@H]1[C@@H]2C(=O)C[C@@]2(C)[C@H]1CC[C@]2(O)C(=O)CO
inactive

Please answer likewise for O=C(O)c1cc(Cl)cc([N+](=O)[O-])c1Cl
inactive

Also CC(C)CCCC(C)CC=O (centres undefined) ?
inactive

Please give the result for CC(=O)OCCC1CCCCC1 too.
inactive

Next record, please: C=C[Si](C)(C)O[Si](C)(C)C=C
inactive

What do we get for C=CC(=O)OCCOC1C2CCC1C1CC=CC12 (centres undefined) ?
inactive

====

biological target: Peroxisome proliferator-activated receptor gamma (Homo sapiens) (UniProt P37231); assay: ATG_PPARg_TRANS: Attagene TRANS-FACTORIAL HepG2 Assay for human Peroxisome Proliferator-activated Receptor-gamma (PPARg) (AID 2283007)
Sequence (P37231 whole entry, looked up): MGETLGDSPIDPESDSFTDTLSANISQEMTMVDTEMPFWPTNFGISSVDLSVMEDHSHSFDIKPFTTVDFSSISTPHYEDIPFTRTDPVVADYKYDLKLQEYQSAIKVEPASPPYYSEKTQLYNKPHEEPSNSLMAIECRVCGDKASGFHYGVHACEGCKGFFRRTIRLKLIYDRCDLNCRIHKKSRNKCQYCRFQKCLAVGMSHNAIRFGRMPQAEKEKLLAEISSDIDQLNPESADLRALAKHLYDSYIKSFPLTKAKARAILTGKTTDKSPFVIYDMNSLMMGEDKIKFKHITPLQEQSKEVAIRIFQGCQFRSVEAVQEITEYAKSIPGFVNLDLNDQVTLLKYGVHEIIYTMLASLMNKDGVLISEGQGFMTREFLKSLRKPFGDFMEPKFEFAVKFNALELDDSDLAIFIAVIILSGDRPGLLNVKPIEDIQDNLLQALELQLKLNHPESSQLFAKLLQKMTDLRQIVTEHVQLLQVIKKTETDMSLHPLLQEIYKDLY
Inconclusive results are not listed. The source made the active and inactive calls. Rule for the calls: active = hit-call score of the fitted dose curve at least 0.9, where 1 is the maximum; inconclusive = response in the unintended direction; inactive = score below 0.9.
Outcome measure: AC50

As a guide, the following entries are already answered.
# Molecule, AC50
rows = [
    ("C=C1[C@H]2CC[C@@H]3[C@H]2C(C)(C)CCC[C@]13C", "inactive"),
    ("COC(=O)c1c(C)cc(O)c(C)c1O", "inactive"),
    ("CC(C)(Oc1ccc(C2CC2(Cl)Cl)cc1)C(=O)O (centres undefined)", "30.6 µM (active)"),
    ("CCCCCCCCCCOC(C)=O", "inactive"),
]

Can you look up AC50 on Peroxisome proliferator-activated receptor gamma (Homo sapiens) (UniProt P37231) for CCCCCCCCCCOS(=O)(=O)O ?
22.6 µM (active)

Also CCC(C)OC(=O)c1ccc(O)cc1 (centres undefined) , if possible.
62.1 µM (active)

# repeat for Cc1cnc(NC(=O)C2=C(O)c3ccccc3S(=O)(=O)N2C)s1
40.4 µM (active)

Another: CC(C)=CCC[C@H](C)CCO
inactive

Another molecule to look at: CC(=O)OCCC1CCCCC1
inactive

Ok, now c1ccc2c(c1)ccc1ncccc12
67.1 µM (active)

// repeat for O=C(O)CCCC[C@@H]1SC[C@@H]2NC(=O)N[C@@H]21 and report
inactive

====

target: Cellular tumor antigen p53 (Homo sapiens) (UniProt P04637); experiment: ATG_p53_CIS: Attagene CIS-FACTORIAL HepG2 Assay for human p53 Transcription Factor (AID 2282994); conditions: HepG2 p53 cis-element reporter, Attagene mRNA; actives raise or lower the signal
Sequence (P04637 whole entry, looked up): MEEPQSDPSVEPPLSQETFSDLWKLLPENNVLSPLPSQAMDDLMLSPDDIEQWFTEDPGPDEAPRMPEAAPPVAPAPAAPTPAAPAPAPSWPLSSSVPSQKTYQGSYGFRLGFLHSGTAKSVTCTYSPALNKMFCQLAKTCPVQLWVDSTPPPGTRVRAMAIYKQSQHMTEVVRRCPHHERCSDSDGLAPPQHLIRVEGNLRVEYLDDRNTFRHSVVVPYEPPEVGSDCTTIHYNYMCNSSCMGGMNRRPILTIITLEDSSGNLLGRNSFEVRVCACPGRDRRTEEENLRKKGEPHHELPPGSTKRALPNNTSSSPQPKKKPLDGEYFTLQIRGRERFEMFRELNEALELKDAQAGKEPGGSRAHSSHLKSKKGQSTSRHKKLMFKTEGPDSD
Active and inactive are the calls of the source. The calls were made as follows: active = hit-call score of the fitted dose curve at least 0.9, where 1 is the maximum; inactive = score below 0.9.
Thanks in advance; please answer with one of these: active, inactive

As a guide, the following entries are already answered.
# Molecule, Group
data = [
    ("Nc1ccc(N)c(Cl)c1", "active"),
    ("CC(=O)C=CC1C(C)=CCC(C)C1(C)C (stereo not given)", "inactive"),
    ("NCCCN1CCN(CCCN)CC1", "inactive"),
    ("C=C[C@](C)(O)CC[C@@H]1[C@@]2(C)CCCC(C)(C)[C@@H]2CC[C@@]1(C)O", "inactive"),
    ("Nc1ccc(N=Nc2ccccc2)c(N)n1", "inactive"),
]

Test call for this molecule, please: CCOC(=O)c1ccccc1C(=C1C=C(Br)C(=O)C(Br)=C1)c1cc(Br)c(O)c(Br)c1
active

Try CCCCCC/C=C\CCCCCCCC(=O)O next.
inactive

Same for CCCCCCCCCCCCCCCC[n+]1ccccc1
active

Now consider O=S(=O)(O)c1ccccc1C=Cc1ccc(-c2ccc(C=Cc3ccccc3S(=O)(=O)O)cc2)cc1 and answer again.
inactive

Another molecule to look at: CC1(C)O[C@@H]2C[C@H]3[C@@H]4C[C@H](F)C5=CC(=O)CC[C@]5(C)[C@H]4[C@@H](O)C[C@]3(C)[C@]2(C(=O)CO)O1
inactive

====

test: ATG_VDRE_CIS: Attagene CIS-FACTORIAL HepG2 Assay for human Vitamin D Receptor Element (VDRE) (AID 2282968); settings: HepG2 VDRE cis-reporter transcription, actives raise or lower the signal
Active and inactive are the calls of the source. Rule for the calls: active = hit-call score of the fitted dose curve at least 0.9, where 1 is the maximum; inactive = score below 0.9.
A correct response names exactly one class from y (active), n (inactive)

# Compound, Group
data = [
    ("CNC(=S)NN", "n"),
]

Please indicate how the test categorized N#CCc1ccc(Cl)cc1Cl .
n

// repeat for Cc1cccc(C(=O)O)c1 and report
n

Now give it for COc1ccc(C(Cl)=C(c2ccc(OC)cc2)c2ccc(OC)cc2)cc1 too.
y

Record: COCc1c(C(C)C)nc(C(C)C)c(/C=C/[C@@H](O)C[C@@H](O)CC(=O)O)c1-c1ccc(F)cc1
y

CC(C)=CCC/C(C)=C\C#N , same question.
n

====

test: ATG_PPRE_CIS: Attagene CIS-FACTORIAL HepG2 Assay for human Peroxisome Proliferator-activated Response Element (PPRE) (AID 2282958); conditions: HepG2 PPRE cis-element reporter, Attagene transcription factor profiling; actives raise or lower the signal
Active and inactive are the calls of the source. Rule for the calls: active = hit-call score of the fitted dose curve at least 0.9, where 1 is the maximum; inactive = score below 0.9.
Outcome measure: AC50

Recorded AC50, per entry:
# Molecule, Outcome measure, Experimental result
measured = [
    ("CCOC(F)(F)C(F)(F)C(F)(F)C(F)(F)F", "AC50", "inactive"),
    ("C=CCCCCCCCCC(=O)OCCCC", "AC50", "inactive"),
    ("CC(C)(C)c1ccc(-c2ccc(C(C)(C)C)cc2)cc1", "AC50", "inactive"),
    ("Cc1ccc2oc(=O)ccc2c1", "AC50", "inactive"),
    ("CN(C)c1ccc(N=Nc2ccccc2C(=O)O)cc1", "AC50", "17.8 µM (active)"),
    ("Cc1ccc(C(C)c2ccc(C)c(C)c2)cc1C", "AC50", "inactive"),
]

Bench note: what AC50 did Cn1c([N+](=O)[O-])cnc1COC(N)=O show?
inactive

Also CCCCCCCOC(=O)CCC ?
inactive

# iterate: CNC(=S)NN
inactive

Please do the same for C=C(C)C(=O)OCCOc1ccccc1 as well.
inactive

Here is the next molecule: C=CC(=O)OCCOC1C2CCC1C1CC=CC12 (configuration not stated)
inactive

How about CC(C)c1ccc(C=O)cc1 ?
inactive

====

molecular target: Retinoic acid receptor RXR-alpha (Homo sapiens) (UniProt P19793); assay: ATG_RXRa_TRANS: Attagene TRANS-FACTORIAL HepG2 Assay for human Retinoid X Receptor alpha (RXRa) (AID 2283012)
Sequence (P19793 whole entry, looked up): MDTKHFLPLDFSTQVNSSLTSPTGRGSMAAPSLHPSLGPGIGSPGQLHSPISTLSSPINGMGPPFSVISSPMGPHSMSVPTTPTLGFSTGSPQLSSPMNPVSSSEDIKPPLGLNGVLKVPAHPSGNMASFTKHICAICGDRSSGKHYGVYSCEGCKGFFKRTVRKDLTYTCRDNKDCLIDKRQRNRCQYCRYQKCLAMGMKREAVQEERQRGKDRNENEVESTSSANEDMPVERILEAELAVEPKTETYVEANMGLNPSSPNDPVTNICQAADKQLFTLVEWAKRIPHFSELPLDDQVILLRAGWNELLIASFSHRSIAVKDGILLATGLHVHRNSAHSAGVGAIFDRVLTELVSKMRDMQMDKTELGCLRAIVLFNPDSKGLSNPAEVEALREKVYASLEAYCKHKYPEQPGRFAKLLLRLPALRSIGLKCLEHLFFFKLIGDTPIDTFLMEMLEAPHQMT
Inconclusive results are not listed. Calls of active or inactive are those of the source. Rule for the calls: active = hit-call score of the fitted dose curve at least 0.9, where 1 is the maximum; inconclusive = response in the unintended direction; inactive = score below 0.9.
API: response.call in active, inactive

As a guide, the following entries are already answered.
# Compound, Group
measured = [
    ("NC(=O)C1CO1 (configuration not stated)", "inactive"),
    ("c1ccc2c(c1)ccc1cc3c(ccc4ccccc43)cc12", "inactive"),
]

So what was the verdict on CCC(Cc1ccccc1)(C(=O)c1ccc(N2CCOCC2)cc1)N(C)C (configuration not stated) in this test?
inactive

Next compound: c1ccc2c(c1)ccc1ncccc12
inactive

Thanks! And C=C(C)C(=O)OCCOc1ccccc1 ?
active

Now the compound CCCCCCCCCCCCCCCC[N+](C)(C)CC
inactive

Proceed to CCCCCCCCCCOC(C)=O
inactive

# repeat for Cc1oncc1C(=O)Nc1ccc(C(F)(F)F)cc1
inactive

CC(C)(C)C1CCCCC1=O (configuration not stated) , same question.
inactive

# repeat for Nc1ccc(N=Nc2ccccc2)c(N)n1
inactive

Proceed to C#CC1(O)CC[C@H]2[C@@H]3CCC4=CCCC[C@@H]4[C@H]3CC[C@@]21C (some centres not stated)
inactive

And what about the compound CC1=NC(C)OC1C (configuration not stated) ?
inactive

Now the same for CC(=O)Oc1ccc(C)cc1
inactive

Same lookup for CC1OC1C1CCC2(C)OC2C1 (configuration not stated) , please.
inactive

Another compound to check: CC(C)COC(=O)C=Cc1ccccc1
inactive

Likewise for CC(=O)[C@@]1(O)CC[C@H]2[C@@H]3C[C@H](C)C4=CC(=O)C=C[C@]4(C)[C@@]3(F)[C@@H](O)C[C@@]21C ?
inactive
